Measured IC50 of individual entries
# Target Of Assay: BRM (Homo sapiens, UniProt P51531)
# Sequence (P51531 whole entry): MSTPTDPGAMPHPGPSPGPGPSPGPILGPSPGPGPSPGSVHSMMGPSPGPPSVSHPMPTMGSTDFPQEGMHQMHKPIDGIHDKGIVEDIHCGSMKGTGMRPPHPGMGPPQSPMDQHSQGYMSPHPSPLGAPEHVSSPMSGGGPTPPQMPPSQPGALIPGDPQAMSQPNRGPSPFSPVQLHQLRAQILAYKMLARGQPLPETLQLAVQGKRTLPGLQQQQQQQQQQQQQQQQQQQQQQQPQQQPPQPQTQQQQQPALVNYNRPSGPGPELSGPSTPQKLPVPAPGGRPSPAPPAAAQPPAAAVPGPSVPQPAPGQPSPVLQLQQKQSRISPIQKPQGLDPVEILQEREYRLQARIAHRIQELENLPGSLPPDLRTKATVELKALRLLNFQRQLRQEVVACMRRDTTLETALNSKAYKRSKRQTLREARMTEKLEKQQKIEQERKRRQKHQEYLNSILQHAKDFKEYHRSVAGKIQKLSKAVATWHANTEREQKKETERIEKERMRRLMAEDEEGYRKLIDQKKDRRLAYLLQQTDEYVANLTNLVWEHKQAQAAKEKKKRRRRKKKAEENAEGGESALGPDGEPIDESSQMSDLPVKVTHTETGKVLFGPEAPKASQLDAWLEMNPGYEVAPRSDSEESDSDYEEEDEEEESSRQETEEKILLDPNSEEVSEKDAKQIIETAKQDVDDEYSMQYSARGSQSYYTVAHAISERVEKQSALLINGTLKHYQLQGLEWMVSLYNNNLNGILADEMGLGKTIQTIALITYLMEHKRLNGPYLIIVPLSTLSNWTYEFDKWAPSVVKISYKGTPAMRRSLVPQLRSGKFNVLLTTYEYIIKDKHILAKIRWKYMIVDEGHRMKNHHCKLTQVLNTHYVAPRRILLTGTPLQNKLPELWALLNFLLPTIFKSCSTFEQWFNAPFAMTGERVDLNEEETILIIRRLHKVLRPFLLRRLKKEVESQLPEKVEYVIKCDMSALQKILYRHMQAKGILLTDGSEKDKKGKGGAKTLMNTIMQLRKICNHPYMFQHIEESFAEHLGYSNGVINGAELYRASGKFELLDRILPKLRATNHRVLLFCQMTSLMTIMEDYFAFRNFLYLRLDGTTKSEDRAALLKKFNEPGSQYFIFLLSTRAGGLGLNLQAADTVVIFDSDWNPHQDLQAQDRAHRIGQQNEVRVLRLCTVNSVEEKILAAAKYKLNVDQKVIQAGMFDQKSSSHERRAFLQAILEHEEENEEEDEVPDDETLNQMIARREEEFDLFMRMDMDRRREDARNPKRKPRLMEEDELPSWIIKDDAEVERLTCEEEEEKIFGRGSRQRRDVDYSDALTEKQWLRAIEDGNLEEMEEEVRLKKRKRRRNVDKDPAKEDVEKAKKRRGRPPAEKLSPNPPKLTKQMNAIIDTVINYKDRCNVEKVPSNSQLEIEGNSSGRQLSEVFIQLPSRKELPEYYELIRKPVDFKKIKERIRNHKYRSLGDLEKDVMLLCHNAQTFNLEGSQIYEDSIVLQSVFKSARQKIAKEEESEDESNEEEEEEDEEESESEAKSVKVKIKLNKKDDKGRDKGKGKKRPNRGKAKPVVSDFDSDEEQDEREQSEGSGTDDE
# Assay Name: ATPase catalytic activity assay (ADP-Glo), BRM
# Condition Info: BRM ATPase: IC50 (uM), 30 nM BRM, 400 μM ATP

Here are 3 molecules together with their reported answers.
1) C[C@@]1(F)COCc2ccc(C(=O)NCc3cc4nc(-c5ccccc5)sc4cn3)cc21 [Compound 300] | 0.1 to 0.5 µM
2) CN(C)c1cccc(-c2ccc3cnc(CNC(=O)c4cc(F)c5c(c4)[C@](F)(C(F)F)COC5)cc3n2)n1 [Compound 226] | 0.1 to 0.5 µM
3) C[C@@]1(C#N)COCc2ccc(C(=O)NCc3ncc4ccc(-c5ccccc5)cc4n3)cc21 [Compound 522] | 0.1 to 0.5 µM

[Q] // returns reported IC50 for input C[C@@]1(F)COCc2ccc(C(=O)NCc3cc4cc(-c5cccc(N6CCC6)n5)ccc4cn3)cc21 [Compound 368]
[A] < 0.1 µM

[Q] What does the data say about its IC50? Entry: CC(=O)N1CCOc2ccc(-c3ccc4cnc(CNC(=O)c5ccc6c(c5)[C@](C)(C#N)COC6)cc4n3)cc21 [Compound 475]
[A] < 0.1 µM

[Q] What does the record list as IC50 for C[C@@]1(C#N)COCc2ccc(C(=O)NCc3cc4nc(-n5cccc(N6CCC6)c5=O)ccc4cn3)cc21 [Compound 283] ?
[A] 0.1 to 0.5 µM

[Q] So what's the measured IC50 for this one? C[C@@]1(C#N)COCc2ccc(C(=O)NCc3cc4cc(-c5ccnc(N6CCC6)c5F)ccc4cn3)cc21 [Compound 272]
[A] < 0.1 µM

[Q] Given the molecule C[C@@]1(C#N)COCc2ccc(C(=O)NCc3cc4nc(-c5ccccc5)sc4nn3)cc21 [Compound 242] , what is its reported IC50?
[A] 0.1 to 0.5 µM
